- assay text: -log concentration required to induce 50% maximum lipogenic activity against Peroxisome proliferator activated receptor gamma
experimental endpoint: log10 of EC50 (log10 of the value in nM)
The common logarithm of EC50 in nM is what is listed.

| compound | log10 of EC50 |
| --- | --- |
| CN(CCOc1ccc(CC(Nc2ccccc2C(=O)C2CCCCCC2)C(=O)O)cc1)c1nc2ccccc2o1 (stereo not drawn) | 1.82 |
| CN(CCOc1ccc(CC(Nc2ccccc2C(=O)c2ccc(-c3ccccc3)cc2)C(=O)O)cc1)c1nc2ccccc2o1 (stereo not drawn) | 2.53 |
| CCOC(=O)c1ccccc1NC(Cc1ccc(OCCc2nc(-c3ccccc3)oc2C)cc1)C(=O)O (stereo not drawn) | -0.37 |
| COc1cccc(C(=O)c2ccccc2NC(Cc2ccc(OCCN(C)c3nc4ccccc4o3)cc2)C(=O)O)c1 (stereo not drawn) | 2.19 |
| Cc1ccc(C(=O)c2ccccc2NC(Cc2ccc(OCCN(C)c3nc4ccccc4o3)cc2)C(=O)O)cc1 (stereo not drawn) | 1.08 |

Please find the next compound below.
Ask: Supply measured log10 of EC50 of CN(CCOc1ccc(CC(Nc2ccsc2C(=O)c2ccccc2)C(=O)O)cc1)c1nc2ccccc2o1 (stereo not drawn) in your reply.
Result: 0.54

The reported numbers originate from BindingDB's records for doi:10.1021/jm980414r.
